Reported values of TGI for individual entries
tested on: SK-MEL-5 melanoma; assay: NCI tumour cell line growth inhibition, 384-well format
Reply with a number, then the unit it belongs to.

given smiles: Cc1c(NC(=O)OC[C@@H]2COCCN2)cn2ncnc(Nc3ccc4c(cnn4Cc4cccc(F)c4)c3)c12
target of assay: SK-MEL-5 melanoma
TGI: 2.9 µM
//
given smiles: c1ccc(Cn2c(-c3ccc(OC[C@H](C4CCNCC4)n4c(-c5ccccc5)nc5ccccc54)cc3)nc3ccccc32)cc1
target of assay: SK-MEL-5 melanoma
TGI: 3.22 µM
//
given smiles: COc1ccccc1S(=O)(=O)Nc1ccc2c(c1)CN(C)C(=O)N2
target of assay: SK-MEL-5 melanoma
TGI: 0.0129 µM

Now look at this entry.
[ask] Return reported TGI. Input molecule: N[C@@H]1CCCN(c2c(/C=C3\SC(=O)NC3=O)cccc2-c2ccccc2)C1
[reply] 23.5 µM
